Collected TGI values appear next to each entry.
tested on: SR leukemia; assay: NCI tumour cell line growth inhibition, 48 h

Example results:
molecule="O=C1c2ccccc2-c2cn(Cc3ccccc3)c3cccc(c23)C1c1cccnc1 (configuration not stated)" quantity_measured=TGI obs_value="> 50 µM"
molecule=CCOC(=O)c1c(NS(=O)(=O)c2ccccc2)sc2c1CCCC2 quantity_measured=TGI obs_value="> 100 µM"
molecule=O=C1c2ccc3c4c(ccc(c24)C(=O)N1CCCCO)C(=O)N(CCCCO)C3=O quantity_measured=TGI obs_value="21.5 µM"
molecule="COC1=CC(=O)[C@@]2(C)C(C)[C@H](c3ccccc3)[C@H]2C1=O (some centres not stated)" quantity_measured=TGI obs_value="> 100 µM"

Inquiry: Query the reported TGI for SR leukemia; item: Clc1ccc(Cc2nc3cc(Cl)c(Cl)cc3n2CC2CCCN3CCCCC23)cc1 (configuration not stated)
Reply text: 15.1 µM

Inquiry: Next record, please: CC(=O)OC1(C(C)=O)CC2(c3ccccc3)OC1(c1ccccc1)c1ccccc12 (configuration not stated)
Reply text: > 100 µM

Inquiry: Next record, please: `O=C1CCNC/C1=C\c1ccccc1`
Reply text: > 100 µM

====

test system: SNB-78 CNS; experiment: NCI tumour cell line growth inhibition, 48 h
quantity.measured: TGI

compound=CC(C)(c1ccc(C=O)o1)c1ccc(C(C)(C)c2ccc(C=O)o2)o1 study_system="SNB-78 CNS" obs_value="> 100 µM"
compound="Cc1cc2c3ccccc3n3c2c2c1OC1(C)CCC(C2C1)C3(C)C (centres undefined)" study_system="SNB-78 CNS" obs_value="> 25 µM"
compound=COc1cccc(NC(=O)/C(CS(=O)(=O)CCC(C(C)=O)C(C)=O)=N\NC(C)(C)C)c1 study_system="SNB-78 CNS" obs_value="> 100 µM"
compound=CCN(CC)C(=O)Cc1[nH][nH]c(=O)c1C(=O)N(CC)CC study_system="SNB-78 CNS" obs_value="> 100 µM"
compound=O=C1N[C@@H]([C@H]2CC[C@H](Cl)CN2)C(=O)N[C@H]1[C@H]1CC[C@H](Cl)CN1 study_system="SNB-78 CNS" obs_value="87.8 µM"
compound=Cc1[nH]c2c(C)c3c([nH]c4ccc(Cl)cc43)c(C)c2c(=O)c1C study_system="SNB-78 CNS" obs_value="> 100 µM"

Inquiry: Please report the recorded TGI for COc1cc(O)c(C(=O)C2Cc3ccccc32)c(OC)c1 (centres undefined) .
Reply text: > 100 µM

Inquiry: Next record, please: COc1cc2c(cc1O)CCN[C@@]21CS[C@H]2c3c(OC(C)=O)c(C)c4c(c3C(COC1=O)N1C2C2NC(Cc3cc(C)c(OC)c(O)c32)[C@@H]1O)OCO4 (some centres undefined)
Reply text: 0.932 µg/mL

Inquiry: Next record, please: CCCC(O)c1ccc2[nH]c3c(C)cc([N+](=O)[O-])c(C)c3c2c1 (centres undefined)
Reply text: > 100 µM

====

system: DMS 273 small cell lung; experiment: NCI tumour cell line growth inhibition, 48 h
Collected TGI values appear next to each entry.

Example results:
compound=CCCCCCNC(=O)CCN(C(=O)O)S(=O)(=O)c1ccc(NC(=O)c2ccccc2)cc1 quantity_measured=TGI obs_value="> 55.2 µM"
compound="CCCOC(=O)CCC(NC(=O)c1ccc(Nc2nc3ccccc3nc2-c2cccs2)cc1)C(=O)OCCC (stereo not given)" quantity_measured=TGI obs_value="> 100 µM"
compound="COc1cc(O)c(C(=O)C2Cc3ccccc32)c(OC)c1 (stereo not given)" quantity_measured=TGI obs_value="> 100 µM"

Inquiry: Please report the recorded TGI for O=C1c2c(c3c4ccccc4n(CC4CO4)c3c3[nH]c4ccccc4c23)C(=O)N1Cc1ccccc1 (stereo not given) .
Reply text: > 100 µM

Inquiry: Next record, please: `O=C1c2ccccc2C(=O)c2c1ccc1c3ccccc3n(-c3ccccc3)c21`
Reply text: 34.4 µM
